test system: Interstitial collagenase (Homo sapiens)
Sequence (P03956 whole entry): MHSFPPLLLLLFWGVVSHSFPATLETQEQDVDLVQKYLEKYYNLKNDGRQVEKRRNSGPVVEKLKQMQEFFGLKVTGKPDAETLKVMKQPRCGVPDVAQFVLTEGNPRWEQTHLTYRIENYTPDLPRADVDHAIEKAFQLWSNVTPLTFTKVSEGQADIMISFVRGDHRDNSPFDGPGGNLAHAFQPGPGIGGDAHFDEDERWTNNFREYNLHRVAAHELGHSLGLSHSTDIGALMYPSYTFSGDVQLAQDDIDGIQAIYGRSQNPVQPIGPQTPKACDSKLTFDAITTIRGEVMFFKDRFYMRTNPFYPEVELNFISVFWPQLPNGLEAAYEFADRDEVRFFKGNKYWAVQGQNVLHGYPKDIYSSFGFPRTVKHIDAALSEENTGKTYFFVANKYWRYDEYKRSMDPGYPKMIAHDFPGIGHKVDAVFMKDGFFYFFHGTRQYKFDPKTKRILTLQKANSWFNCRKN
pIC50: −log10 of the molar value.
measurement type: pIC50

// known answers, use as guide
> print(dat)
                                   compound  test.value
1  CNC(=O)[C@H](Cc1ccc(OC)cc1)NC(=O)[C@]1(CC(=O)NO)CCc2ccccc21        4.76
2  CNC(=O)[C@H](Cc1ccc(OC)cc1)NC(=O)C1(CC(=O)NO)CCCC1        5.55

1: CNC(=O)[C@H](Cc1ccc(OC)cc1)NC(=O)C1(CC(=O)NO)Cc2ccccc2C1
2: CNC(=O)[C@H](Cc1ccc(OC)cc1)NC(=O)C(C)(CC(=O)NO)c1ccccc1 (some centres undefined)
Challenge: For the pair 1 and 2 , which member has the lower pIC50 number? Choose, then provide that item's label.
Response given: 2
(2: 5.42, 1: 6.24)

Recorded values, source ChEMBL document CHEMBL1129713.
